All values here come from patent US12187704B2.

- System: SARS-COV-2 Omicron hCoV-19/USA/MD HP20874/2021 (B.1.1.529) strain
- EXPERIMENT_NOTES: In vitro antiviral activity against SARS-COV-2 Omicron B.1.1.529 in Calu-3 cells
- Type: cell-based
- CONDITION_SET: Severe acute respiratory syndrome coronavirus 2, Calu-3, 48 h
MEASUREMENT_NAME: EC50

The following compounds have reported results that may help.
> print(dat)
                                        smi  assay.value
1  [2H]C([2H])([2H])n1cc2cc(Nc3nc(=O)n(-c4cncc(Cl)c4)c(=O)n3Cc3cc(F)c(F)cc3F)c(Br)cc2n1        10 nM
2  [2H]C([2H])([2H])n1cc2cc(Nc3nc(=O)n(-c4cncc(Cl)c4)c(=O)n3Cc3cc(F)c(F)cc3F)c(Cl)cc2n1         9 nM
3  O=c1nc(Nc2cc3cn(CCO)nc3cc2Cl)n(Cc2cc(F)c(F)cc2F)c(=O)n1-c1cncc(Cl)c1        13 nM

Quick note, EC50 for Cn1cc2cc(Nc3nc(=O)n(-c4cncnc4)c(=O)n3Cc3cc(F)c(F)cc3F)c(Cl)cc2n1 landed at 195 nM

Quick note, EC50 for Cn1cc2cc(Nc3nc(=O)n(-c4cc(F)cnc4Cl)c(=O)n3Cc3cc(F)c(F)cc3F)c(Cl)cc2n1 landed at 98 nM

Quick note, EC50 for Cn1cc2cc(Nc3nc(=O)n(-c4cc(Cl)cnc4Cl)c(=O)n3Cc3cc(F)c(F)cc3F)c(Cl)cc2n1 landed at 84 nM
